# method_description: Body weight / toxicity of a single intraperitoneal injection in HCT-116 colon tumor-bearing nude mice
# experimental_conditions: Day 16; single IP injection (QD×1); D1 and D2 400 mg/kg, D3 350 mg/kg, D4 300 mg/kg
value_kind: Average rate of weight change of the animals (%)
Express your answer in %, writing the number without its unit.

Q: Requested field: Average rate of weight change of the animals. Item: `O=C(CCCC(=O)OC[C@H]1O[C@@H](n2ccc(NC(=O)OCc3ccccc3)nc2=O)C(F)(F)[C@@H]1O)OC[C@H]1O[C@@H](n2ccc(NC(=O)OCc3ccccc3)nc2=O)C(F)(F)[C@@H]1O`
A: 10.78

Q: Then CCCCOC(=O)Nc1ccn(C2OC(COC(=O)CCC(=O)OC[C@H]3O[C@@H](n4ccc(NC(=O)OCc5ccccc5)nc4=O)C(F)(F)[C@@H]3O)C(O)C2(F)F)c(=O)n1 (stereo in doubt) ?
A: 6.62

Q: Here is the next compound: CCCCOC(=O)Nc1ccn(C2OC(COC(=O)CCCC(=O)OC[C@H]3O[C@@H](n4ccc(NC(=O)OCCCC)nc4=O)C(F)(F)[C@@H]3OC(=O)OCCCC)C(OC(=O)OCCCC)C2(F)F)c(=O)n1 (stereo in doubt) [Compound D1]
A: 5.24

Now look at this one.
Q: Any idea what its Average rate of weight change of the animals is? The compound is CCCCOC(=O)Nc1ccn([C@H]2O[C@@H](COC(=O)CCC(=O)OC[C@H]3O[C@@H](n4ccc(NC(=O)OCCCC)nc4=O)C(F)(F)[C@@H]3O)[C@H](O)C2(F)F)c(=O)n1 (stereo in doubt) [Compound D2]
A: 6.32

The origin of these recorded values is patent US10351586B2.
